Let's look at some molecules and their measured mean geometric MIC, Vancomycin Sensitive Strains.
tested on: vancomycin-susceptible enterococci; assay: broth micro-dilution, mean geometric MIC; assay type: cell-based, Enterococcus faecium and Enterococcus faecalis; settings: enterococci, 24-hour incubation
testReadout: mean geometric MIC, Vancomycin Sensitive Strains

CNC(CC(C)C)C(=O)NC1C(=O)NC(CC(N)=O)C(=O)NC2C(=O)NC3C(=O)NC(C(=O)NC(C(=O)O)c4cc(O)cc(O)c4-c4cc3ccc4O)C(OC3CC(C)(N)C(O)C(C)O3)c3ccc(c(Cl)c3)Oc3cc2cc(c3OC2OC(CO)C(O)C(O)C2OC2CC(C)(NCc3ccc(-c4ccccc4C)c(C)c3)C(O)C(C)O2)Oc2ccc(cc2Cl)C1O (centres unmarked) [Compound 237]: 0.048 µg/mL
CNC(CC(C)C)C(=O)NC1C(=O)NC(CC(N)=O)C(=O)NC2C(=O)NC3C(=O)NC(C(=O)NC(C(=O)O)c4cc(O)cc(O)c4-c4cc3ccc4O)C(OC3CC(C)(N)C(O)C(C)O3)c3ccc(c(Cl)c3)Oc3cc2cc(c3OC2OC(CO)C(O)C(O)C2OC2CC(C)(NCCc3ccc(Oc4ccccc4)cc3)C(O)C(C)O2)Oc2ccc(cc2Cl)C1O (centres unmarked) [Compound 63]: 0.66 µg/mL

* * *

system: Lactobacillus confusus; assay: agar dilution MIC, lactic acid bacteria; type: cell-based; conditions: Lactobacillus confusus, brain-heart infusion agar
Let's look at some compounds and their measured MIC.
testReadout: MIC (µg/mL)

CNC(CC(C)C)C(=O)NC1C(=O)NC(CC(N)=O)C(=O)NC2C(=O)NC3C(=O)NC(C(=O)NC(C(=O)O)c4cc(O)cc(O)c4-c4cc3ccc4O)C(OC3CC(C)(N)C(O)C(C)O3)c3ccc(c(Cl)c3)Oc3cc2cc(c3OC2OC(CO)C(O)C(O)C2OC2CC(C)(NCc3cccc(Oc4ccccc4)c3)C(O)C(C)O2)Oc2ccc(cc2Cl)C1O (stereo not drawn) [Compound 49]: 64
CNC(CC(C)C)C(=O)NC1C(=O)NC(CC(N)=O)C(=O)NC2C(=O)NC3C(=O)NC(C(=O)NC(C(=O)O)c4cc(O)cc(O)c4-c4cc3ccc4O)C(OC3CC(C)(N)C(O)C(C)O3)c3ccc(c(Cl)c3)Oc3cc2cc(c3OC2OC(CO)C(O)C(O)C2OC2CC(C)(NCc3ccc(C=Cc4ccccc4)cc3)C(O)C(C)O2)Oc2ccc(cc2Cl)C1O (stereo not drawn) [Compound 29]: 8
CNC(CC(C)C)C(=O)NC1C(=O)NC(CC(N)=O)C(=O)NC2C(=O)NC3C(=O)NC(C(=O)NC(C(=O)O)c4cc(O)cc(O)c4-c4cc3ccc4O)C(OC3CC(C)(N)C(O)C(C)O3)c3ccc(c(Cl)c3)Oc3cc2cc(c3OC2OC(CO)C(O)C(O)C2OC2CC(C)(NCc3ccc(-c4ccc(-c5ccccc5)cc4)cc3)C(O)C(C)O2)Oc2ccc(cc2Cl)C1O (stereo not drawn) [Compound 36]: 32

* * *

system: Lactobacillus confusus; experiment: agar dilution MIC, lactic acid bacteria; format: cell-based; details: Lactobacillus confusus, brain-heart infusion agar
testReadout: MIC (mg/L)

CNC(CC(C)C)C(=O)NC1C(=O)NC(CC(N)=O)C(=O)NC2C(=O)NC3C(=O)NC(C(=O)NC(C(=O)O)c4cc(O)cc(O)c4-c4cc3ccc4O)C(OC3CC(C)(N)C(O)C(C)O3)c3ccc(c(Cl)c3)Oc3cc2cc(c3OC2OC(CO)C(O)C(O)C2OC2CC(C)(NCc3ccc(Oc4ccccc4)cc3)C(O)C(C)O2)Oc2ccc(cc2Cl)C1O (stereo not drawn) [Compound 4, p-phenoxybenzyl·A82846B]: 32
CNC(CC(C)C)C(=O)NC1C(=O)NC(CC(N)=O)C(=O)NC2C(=O)NC3C(=O)NC(C(=O)NC(C(=O)O)c4cc(O)cc(O)c4-c4cc3ccc4O)C(OC3CC(C)(N)C(O)C(C)O3)c3ccc(c(Cl)c3)Oc3cc2cc(c3OC2OC(CO)C(O)C(O)C2OC2CC(C)(NCc3ccc(Cc4ccccc4)cc3)C(O)C(C)O2)Oc2ccc(cc2Cl)C1O (stereo not drawn): 64
CNC(CC(C)C)C(=O)NC1C(=O)NC(CC(N)=O)C(=O)NC2C(=O)NC3C(=O)NC(C(=O)NC(C(=O)O)c4cc(O)cc(O)c4-c4cc3ccc4O)C(OC3CC(C)(N)C(O)C(C)O3)c3ccc(c(Cl)c3)Oc3cc2cc(c3OC2OC(CO)C(O)C(O)C2OC2CC(C)(NCc3ccc(OC4CCCCC4)cc3)C(O)C(C)O2)Oc2ccc(cc2Cl)C1O (stereo not drawn): 16

* * *

system: Streptococcus pyogenes C203; experiment: broth micro-dilution MIC; format: cell-based
testReadout: MIC

CNC(CC(C)C)C(=O)NC1C(=O)NC(CC(N)=O)C(=O)NC2C(=O)NC3C(=O)NC(C(=O)NC(C(=O)O)c4cc(O)cc(O)c4-c4cc3ccc4O)C(OC3CC(C)(N)C(O)C(C)O3)c3ccc(c(Cl)c3)Oc3cc2cc(c3OC2OC(CO)C(O)C(O)C2OC2CC(C)(NCCCCCCc3ccccc3)C(O)C(C)O2)Oc2ccc(cc2Cl)C1O (stereo not drawn): ≤ 0.06 µg/mL
CCCCCCCCCOc1ccc(CNC2(C)CC(OC3C(Oc4c5cc6cc4Oc4ccc(cc4Cl)C(OC4CC(C)(N)C(O)C(C)O4)C4NC(=O)C(NC(=O)C6NC(=O)C(CC(N)=O)NC(=O)C(NC(=O)C(CC(C)C)NC)C(O)c6ccc(c(Cl)c6)O5)c5ccc(O)c(c5)-c5c(O)cc(O)cc5C(C(=O)O)NC4=O)OC(CO)C(O)C3O)OC(C)C2O)cc1 (stereo not drawn): ≤ 0.06 µg/mL
CNC(CC(C)C)C(=O)NC1C(=O)NC(CC(N)=O)C(=O)NC2C(=O)NC3C(=O)NC(C(=O)NC(C(=O)O)c4cc(O)cc(O)c4-c4cc3ccc4O)C(OC3CC(C)(N)C(O)C(C)O3)c3ccc(c(Cl)c3)Oc3cc2cc(c3OC2OC(CO)C(O)C(O)C2OC2CC(C)(NCc3ccc4ccc5cccc6ccc3c4c56)C(O)C(C)O2)Oc2ccc(cc2Cl)C1O (stereo not drawn): ≤ 0.06 µg/mL

* * *

test system: Pediococcus pentosaceus; assay: agar dilution MIC, lactic acid bacteria; format: cell-based; settings: Pediococcus pentosaceus (mean of 2), brain-heart infusion agar
Let's look at some compounds and their measured MIC.
testReadout: MIC (mg/L)

CNC(CC(C)C)C(=O)NC1C(=O)NC(CC(N)=O)C(=O)NC2C(=O)NC3C(=O)NC(C(=O)NC(C(=O)O)c4cc(O)cc(O)c4-c4cc3ccc4O)C(OC3CC(C)(N)C(O)C(C)O3)c3ccc(c(Cl)c3)Oc3cc2cc(c3OC2OC(CO)C(O)C(O)C2OC2CC(C)(NCc3cccc4c3oc3ccccc34)C(O)C(C)O2)Oc2ccc(cc2Cl)C1O (stereo not shown): 32
CNC(CC(C)C)C(=O)NC1C(=O)NC(CC(N)=O)C(=O)NC2C(=O)NC3C(=O)NC(C(=O)NC(C(=O)O)c4cc(O)cc(O)c4-c4cc3ccc4O)C(OC3CC(C)(N)C(O)C(C)O3)c3ccc(c(Cl)c3)Oc3cc2cc(c3OC2OC(CO)C(O)C(O)C2OC2CC(C)(NCc3ccc(Sc4ccccc4)cc3)C(O)C(C)O2)Oc2ccc(cc2Cl)C1O (stereo not shown): 23
CNC(CC(C)C)C(=O)NC1C(=O)NC(CC(N)=O)C(=O)NC2C(=O)NC3C(=O)NC(C(=O)NC(C(=O)O)c4cc(O)cc(O)c4-c4cc3ccc4O)C(OC3CC(C)(N)C(O)C(C)O3)c3ccc(c(Cl)c3)Oc3cc2cc(c3OC2OC(CO)C(O)C(O)C2OC2CC(C)(NCc3ccc(-c4ccc(-c5ccccc5)cc4)cc3)C(O)C(C)O2)Oc2ccc(cc2Cl)C1O (stereo not shown): 16
CNC(CC(C)C)C(=O)NC1C(=O)NC(CC(N)=O)C(=O)NC2C(=O)NC3C(=O)NC(C(=O)NC(C(=O)O)c4cc(O)cc(O)c4-c4cc3ccc4O)C(OC3CC(C)(N)C(O)C(C)O3)c3ccc(c(Cl)c3)Oc3cc2cc(c3OC2OC(CO)C(O)C(O)C2OC2CC(C)(NCc3ccc(Oc4ccccc4)cc3)C(O)C(C)O2)Oc2ccc(cc2Cl)C1O (stereo not shown) [Compound 4, p-phenoxybenzyl·A82846B]: 16

* * *

system: Streptococcus pyogenes C203; assay: broth micro-dilution MIC; format: cell-based
testReadout: MIC

CNC(CC(C)C)C(=O)NC1C(=O)NC(CC(N)=O)C(=O)NC2C(=O)NC3C(=O)NC(C(=O)NC(C(=O)O)c4cc(O)cc(O)c4-c4cc3ccc4O)C(OC3CC(C)(N)C(O)C(C)O3)c3ccc(c(Cl)c3)Oc3cc2cc(c3OC2OC(CO)C(O)C(O)C2OC2CC(C)(NCc3ccc(N(C)c4ccccc4)cc3)C(O)C(C)O2)Oc2ccc(cc2Cl)C1O (stereo not drawn) [Compound 178]: ≤ 0.06 µg/mL
CNC(CC(C)C)C(=O)NC1C(=O)NC(CC(N)=O)C(=O)NC2C(=O)NC3C(=O)NC(C(=O)NC(C(=O)O)c4cc(O)cc(O)c4-c4cc3ccc4O)C(OC3CC(C)(N)C(O)C(C)O3)c3ccc(c(Cl)c3)Oc3cc2cc(c3OC2OC(CO)C(O)C(O)C2OC2CC(C)(NCc3ccc([S+]([O-])c4ccccc4)cc3)C(O)C(C)O2)Oc2ccc(cc2Cl)C1O (stereo not drawn) [Compound 159]: ≤ 0.06 µg/mL
CNC(CC(C)C)C(=O)NC1C(=O)NC(CC(N)=O)C(=O)NC2C(=O)NC3C(=O)NC(C(=O)NC(C(=O)O)c4cc(O)cc(O)c4-c4cc3ccc4O)C(OC3CC(C)(N)C(O)C(C)O3)c3ccc(c(Cl)c3)Oc3cc2cc(c3OC2OC(CO)C(O)C(O)C2OC2CC(C)(NCc3ccc(Nc4ccccc4)cc3)C(O)C(C)O2)Oc2ccc(cc2Cl)C1O (stereo not drawn) [Compound 160]: ≤ 0.06 µg/mL
CNC(CC(C)C)C(=O)NC1C(=O)NC(CC(N)=O)C(=O)NC2C(=O)NC3C(=O)NC(C(=O)NC(C(=O)O)c4cc(O)cc(O)c4-c4cc3ccc4O)C(OC3CC(C)(N)C(O)C(C)O3)c3ccc(c(Cl)c3)Oc3cc2cc(c3OC2OC(CO)C(O)C(O)C2OC2CC(C)(NCc3ccc(-c4ccc(C#N)cc4)cc3)C(O)C(C)O2)Oc2ccc(cc2Cl)C1O (stereo not drawn) [Compound 231]: ≤ 0.06 µg/mL
CNC(CC(C)C)C(=O)NC1C(=O)NC(CC(N)=O)C(=O)NC2C(=O)NC3C(=O)NC(C(=O)NC(C(=O)O)c4cc(O)cc(O)c4-c4cc3ccc4O)C(OC3CC(C)(N)C(O)C(C)O3)c3ccc(c(Cl)c3)Oc3cc2cc(c3OC2OC(CO)C(O)C(O)C2OC2CC(C)(NCc3cccc(Oc4cccc(C(F)(F)F)c4)c3)C(O)C(C)O2)Oc2ccc(cc2Cl)C1O (stereo not drawn) [Compound 203]: ≤ 0.06 µg/mL
CNC(CC(C)C)C(=O)NC1C(=O)NC(CC(N)=O)C(=O)NC2C(=O)NC3C(=O)NC(C(=O)NC(C(=O)O)c4cc(O)cc(O)c4-c4cc3ccc4O)C(OC3CC(C)(N)C(O)C(C)O3)c3ccc(c(Cl)c3)Oc3cc2cc(c3OC2OC(CO)C(O)C(O)C2OC2CC(C)(NCc3ccc(OCCOCCCl)cc3)C(O)C(C)O2)Oc2ccc(cc2Cl)C1O (stereo not drawn) [Compound 75]: ≤ 0.06 µg/mL
